Some compounds, each annotated with its measured Kd.
- System: NCS-1ΔH10 (Homo sapiens, UniProt P62166)
- Construct: NCS-1 construct lacking helix H10
- Run description: Intrinsic emission fluorescence binding to NCS-1ΔH10
- Test parameters: NCS-1ΔH10, intrinsic emission fluorescence; read-out: apparent binding affinity for H10-truncated NCS-1
- Procedure: To determine the affinity of the FDA-approved drugs for full-length NCS-1 or NCS-1ΔH10, we used fluorescence techniques, since the presence of tryptophan (Trp) and tyrosine (Tyr) residues in NCS-1 sequence confers the protein intrinsic emission fluorescence when excited at 295 nm. Fluorescence intensity was monitored at 330 nm and 35 °C with a nano-DSF machine (nanoTemper). […] In fact, compound FDA-02, 09, 11, 15, 21, and 22 were measured using SPR due to their high intrinsic emission at 330 nm. […]
Give a bare numeral; the unit µM is implied.

>>> df
                                chem_smiles  measured_value
0  CC(C)c1c(C(=O)Nc2ccccc2)c(-c2ccccc2)c(-c2ccc(F)cc2)n1CC[C@@H](O)C[C@@H](O)CC(=O)O              17

Query :: Given N#Cc1ccc2[nH]cc(CCCCN3CCN(c4ccc5oc(C(N)=O)cc5c4)CC3)c2c1 , state its recorded Kd.
Result :: 8

###

Some molecules, each annotated with its measured pKd.
- System: full-length NCS-1 (Homo sapiens, UniProt P62166)
- Construct: For biophysical and crystallographic assays, full-length human NCS-1; made in house
- Sequence (P62166 whole entry): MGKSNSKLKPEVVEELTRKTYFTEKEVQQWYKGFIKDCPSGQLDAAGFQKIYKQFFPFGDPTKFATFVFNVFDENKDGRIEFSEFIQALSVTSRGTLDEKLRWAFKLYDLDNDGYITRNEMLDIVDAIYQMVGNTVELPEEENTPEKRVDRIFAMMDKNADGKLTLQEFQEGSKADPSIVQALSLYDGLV
- Run description: Tryptophan intrinsic emission fluorescence binding to full-length NCS-1
- Test parameters: full-length NCS-1 5 μM, Trp emission at 330 nm, 35 °C, apparent Kd mean ± SD; read-out: NCS-1/FDA Affinity, Kd
Structures can show the parent of a compound that is named as a salt.
pKd here is simply -log10 of the concentration when that concentration is written in mol/L.

Worked examples, 4 molecules total:
Molecule	System	pKd
CCN(CC)CCCC(C)Nc1ccnc2cc(Cl)ccc12 (centres unmarked)	full-length NCS-1 (Homo sapiens, UniProt P62166)	3.70
CCCCCCOC(=O)NC(=N)c1ccc(NCc2nc3cc(C(=O)N(CCC(=O)OCC)c4ccccn4)ccc3n2C)cc1 [Dabigatran etexilate]	full-length NCS-1 (Homo sapiens, UniProt P62166)	4.88
COC(=O)N[C@H](C(=O)N1CCC[C@H]1c1nc(-c2ccc(-c3ccc(-c4c[nH]c([C@@H]5CCCN5C(=O)[C@@H](NC(=O)OC)C(C)C)n4)cc3)cc2)c[nH]1)C(C)C	full-length NCS-1 (Homo sapiens, UniProt P62166)	5.14
CCN(CCO)CCCC(C)Nc1ccnc2cc(Cl)ccc12 (centres unmarked) [Hydroxychloroquine sulfate]	full-length NCS-1 (Homo sapiens, UniProt P62166)	3.45

For the next question, use this molecule.
Query :: Given Cc1c(O)cccc1C(=O)N[C@@H](CSc1ccccc1)[C@H](O)CN1C[C@H]2CCCC[C@H]2C[C@H]1C(=O)NC(C)(C)C , state its recorded pKd.
Result :: 4.32

###

- System: full-length NCS-1 (Homo sapiens, UniProt P62166)
- Construct: For biophysical and crystallographic assays, full-length human NCS-1; made in house
- Run description: Surface plasmon resonance over CM4-immobilized NCS-1
- Type: binding
- Test parameters: SPR, NCS-1 immobilized on CM4 chip, 25 °C; used for compounds that emit at 330 nm; read-out: NCS-1/FDA Affinity, Kd
Parameter measured: Kd

Query :: Given OCc1cc(C(O)CNCCCCCCOCCCCc2ccccc2)ccc1O (stereo not shown) , state its recorded Kd.
Result :: 68.2 µM
